Measured 50 μM % Lysed cells (1 h LDH) accompanies every entry in the list below.
# System: SJSA-1 cells
# method description: Cell lysis by peptidomimetic macrocycles (LDH release)
# Format: cell-based
# test parameters: 50 μM, SJSA-1, 1 h
# Experimental: SJSA-1 cells were plated out one day in advance in clear flat-bottom plates (Costar, catalog number 353072) at 7500 cells/well with 100 ul/well of growth media, leaving row H columns 10-12 empty for media alone. On the day of the assay, media was exchanged with RPMI 1% FBS media, 90 uL of media per well. […] Cell plates were incubated for 1 hour at 37° C. […] LDH release is measured using the LDH cytotoxicity assay kit from Caymen, catalog #1000882.
Just the number in %, nothing appended.

For the compound shown here, `CC(=O)N[C@@H](CC(C)C)C(=O)N[C@H](C(=O)N[C@@H](Cc1ccc(F)c(F)c1)C(=O)N[C@]1(C)CCCCCC/C=C/CCC[C@@](C)(C(=O)N[C@@H](CO)C(=O)N[C@@H](C)C(=O)N[C@@H](C)C(N)=O)NC(=O)[C@H](CCC(C)C)NC(=O)[C@H](CCC(N)=O)NC(=O)[C@H](C)NC(=O)[C@H](Cc2c[nH]c3ccccc23)NC(=O)[C@H](Cc2ccc(O)cc2)NC(=O)[C@H](CCC(=O)O)NC1=O)[C@@H](C)O` , give the reported 50 μM % Lysed cells (1 h LDH).
1

Queued: CC[C@H](C)[C@H](NC(=O)[C@H](C)NC(=O)[C@H](C)NC(=O)[C@]1(C)CCCC=CCCCCCC[C@@](C)(NC(=O)[C@H](Cc2ccccc2)NC(=O)[C@@H](NC(=O)[C@H](CC(C)C)NC(C)=O)[C@@H](C)O)C(=O)N[C@@H](C)C(=O)N[C@@H](Cc2ccc(C(=O)O)cc2)C(=O)N[C@@H](Cc2c[nH]c3ccccc23)C(=O)N[C@@H](C)C(=O)N[C@@H](CCC(N)=O)C(=O)N[C@@H](CC(C)C)C(=O)N1)C(=O)N[C@H](C)C(N)=O (single isomer, unassigned)
6

Follow-up item: CC[C@H](C)[C@H](NC(=O)[C@H](C)NC(=O)[C@H](C)NC(=O)[C@]1(C)CCCC=CCCCCCC[C@@](C)(NC(=O)[C@H](Cc2ccccc2)NC(=O)[C@@H](NC(=O)[C@H](CC(C)C)NC(C)=O)[C@@H](C)O)C(=O)N[C@@H](C)C(=O)N[C@@H](Cc2ccc(O)cc2)C(=O)N[C@@H](Cc2c[nH]c3ccccc23)C(=O)N[C@@H](C)C(=O)N[C@@H](CCC(N)=O)C(=O)N[C@@H](CC(C)C)C(=O)N1)C(=O)N[C@@H](C)C(N)=O (single isomer, unassigned)
2

Continue with `CC(=O)N[C@@H](CC(C)C)C(=O)N[C@H](C(=O)N[C@@H](Cc1ccccc1)C(=O)N[C@]1(C)CCCCCC/C=C/CCC[C@@](C)(C(=O)N[C@@H](C)C(=O)N[C@@H](C)C(=O)N[C@@H](C)C(=O)N[C@@H](C)C(=O)N[C@@H](C)C(=O)N[C@H](C)C(N)=O)NC(=O)[C@H](CC(C)C)NC(=O)[C@H](CCC(N)=O)NC(=O)[C@H](C)NC(=O)[C@H](Cc2c[nH]c3ccccc23)NC(=O)[C@H](Cc2ccc(O)cc2)NC(=O)[C@H](CCC(=O)O)NC1=O)[C@@H](C)O`
0

Please do the same for `CC[C@H](C)[C@H](NC(=O)[C@H](C)NC(=O)[C@H](C)NC(=O)[C@]1(C)CCC/C=C/CCCCCC[C@@](C)(NC(=O)[C@H](Cc2ccccc2)NC(=O)[C@@H](NC(=O)[C@H](CC(C)C)NC(C)=O)[C@@H](C)O)C(=O)N[C@@H](C)C(=O)N[C@@H](Cc2ccc(O)cc2)C(=O)N[C@@H](Cc2c[nH]c3ccccc23)C(=O)N[C@@H](C)C(=O)N[C@@H](CCC(N)=O)C(=O)N[C@@H](CC(C)C)C(=O)N1)C(=O)N[C@H](C)C(N)=O` as well.
0
